# Tested on: T315I Bcr-Abl
# assay.info: Antiproliferative activity on T315I Bcr-Abl mutant Ba/F3 cells
# Assay type: cell-based, murine
# experimental.conditions: Mus musculus, BaF3, read-out: cellular EC50 T315I
pEC50: −log10 of the molar value.
measurement.kind: pEC50

CS(=O)(=O)Nc1ccc(-c2cc(Nc3ccc(OC(F)(F)F)cc3)ncn2)cc1 [5h] = < 5.00

Let us examine a further case.
Incoming: // query pEC50 value for entry CN1CCN(C(=O)c2cc3c(Nc4ccc(OC(F)(F)F)cc4)ncnc3s2)CC1 [14d]
Outgoing: < 5.00
